// data source = BindingDB's records for patent US12552799

So I've got Ki readings for Adenosine receptor A2a (Homo sapiens), take a look.
measured_quantity: Ki (nM)

>  <compound>
C[C@@H]1CN(c2c(-c3ccccc3)nc(N)n3c(=O)n(CCCF)nc23)C[C@H](C)O1 [US12552799, Example 1-2]

>  <units_text>
nM

>  <data_value>
158

$$$$
>  <compound>
Cc1cc(-c2c(-c3ccc(F)cc3)nc(N)n3c(=O)n(Cc4ccc(Cl)cn4)nc23)cc2ocnc12 [US12552799, Example 4-2]

>  <units_text>
nM

>  <data_value>
0.158

$$$$

(A) Cc1ocnc1Cn1nc2c(-c3cc(C)c4ncoc4c3)c(-c3ccccc3)nc(N)n2c1=O [US12552799, Example 4-6]
(B) C[C@@H]1CN(c2c(-c3ccccc3)nc(N)n3c(=O)n(C[C@@H]4CCCN4C)nc23)C[C@H](C)O1 [US12552799, Example 1-7]
Compare the recorded Ki of A and B ; state which is larger. When you have decided, please share the label of that item.
B
(B: 158 nM, A: 0.079 nM)
